System: Escherichia coli
Assay: Antimicrobial activity against Escherichia coli MTCC 723 at 750 ug/ml after 24 hrs by cup plate method
Type: functional
Conditions: MTCC 723, 24 h, read-out: IZ
A collection of compounds and their measured zone of inhibition at 750 µg/mL
Write it as a number; the unit mm goes unstated.

These solved cases illustrate the format of a correct answer.
>>> measured_number("Nc1nc(=O)[nH]c2c1C(c1c(-c3ccccc3)[nH]c3ccccc13)C=C(c1ccc(Cl)cc1)O2 (stereo not drawn)")
13
>>> measured_number("N#Cc1c(N)c2c(N)c3c(nc2oc1=O)OC(c1ccc(Cl)cc1)=CC3c1c(-c2ccccc2)[nH]c2ccc(Cl)cc12 (stereo not drawn)")
12
>>> measured_number("Cc1ccc2[nH]c(-c3ccccc3)c(C3C=C(c4ccccc4)OC(N)=C3C#N)c2c1 (stereo not drawn)")
6
>>> measured_number("Cc1ccc2[nH]c(-c3ccccc3)c(C3C=C(c4ccccc4)Oc4[nH]nc(N)c43)c2c1 (stereo not drawn)")
3
>>> measured_number("O=c1[nH]cnc2c1C(c1c(-c3ccccc3)[nH]c3ccccc13)C=C(c1ccccc1)O2 (stereo not drawn)")
6
>>> measured_number("Nc1nc(=S)[nH]c2c1C(c1c(-c3ccccc3)[nH]c3ccc(Cl)cc13)C=C(c1ccccc1)O2 (stereo not drawn)")
8
>>> measured_number("Nc1nc(=O)[nH]c2c1C(c1c(-c3ccccc3)[nH]c3ccc(Cl)cc13)C=C(c1ccc(Cl)cc1)O2 (stereo not drawn)")
10
>>> measured_number("Cc1ccc(C2=CC(c3c(-c4ccccc4)[nH]c4ccc(C)cc34)c3c(nc[nH]c3=O)O2)cc1 (stereo not drawn)")
2
>>> measured_number("N#CC1=C(N)OC(c2ccccc2)=CC1c1c(-c2ccccc2)[nH]c2ccccc12 (stereo not drawn)")
8
>>> measured_number("O=c1[nH]cnc2c1C(c1c(-c3ccccc3)[nH]c3ccc(Cl)cc13)C=C(c1ccc(Cl)cc1)O2 (stereo not drawn)")
9

Task: Record Nc1n[nH]c2c1C(c1c(-c3ccccc3)[nH]c3ccc(Cl)cc13)C=C(c1ccccc1)O2 (stereo not drawn) : what is its zone of inhibition at 750 µg/mL with Escherichia coli?
Output: 7

Task: What is its zone of inhibition at 750 µg/mL for Escherichia coli? Entry: Cc1ccc2[nH]c(-c3ccccc3)c(C3C=C(c4ccccc4)Oc4nc[nH]c(=O)c43)c2c1 (stereo not drawn)
Output: 6

Task: Test system Escherichia coli; read-out zone of inhibition at 750 µg/mL; what value for Cc1ccc(C2=CC(c3c(-c4ccccc4)[nH]c4ccc(Cl)cc34)C(C#N)=C(N)O2)cc1 (stereo not drawn) ?
Output: 10
